# study target: T1, FBXL12, Q9NXK8
# T1 chain: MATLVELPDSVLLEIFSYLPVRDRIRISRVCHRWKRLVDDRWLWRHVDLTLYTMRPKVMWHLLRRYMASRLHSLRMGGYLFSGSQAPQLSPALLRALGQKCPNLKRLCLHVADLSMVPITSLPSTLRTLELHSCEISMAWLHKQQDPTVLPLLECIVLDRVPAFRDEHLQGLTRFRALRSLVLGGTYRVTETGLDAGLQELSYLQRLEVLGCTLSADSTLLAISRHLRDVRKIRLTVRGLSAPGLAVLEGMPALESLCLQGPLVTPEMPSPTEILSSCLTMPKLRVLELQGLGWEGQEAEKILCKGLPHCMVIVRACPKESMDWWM
# assay overview: median log2 fold change of GCK-ALFA target abundance (FLAG IP / Myc IP barcode read proportion) (log2 ratio); each designed protein is fused to an ALFA-tag nanobody in HEK293 cells to bring the named protein to FLAG-tagged glucokinase (GCK); Myc marks an untargeted standard; higher = target protein stabilised (more abundant)
# protocol conditions: target protein: 3xFLAG-MCP-GCK-ALFA reporter; HEK293 landing pad (RPLP)
Task for the reader: assign each of the following binders its reported median log2 fold change.
Number only, no unit.

Please report the recorded median log2 fold change for FBXL12_hotspot_20_42 (protein) MLRLRVGVSEDVEANRGSLLRAAELVEAFADRLAAEFPELAEVIARLRETARRAREAAARLPGLSPEEARALVREMSEEIAEVVEEASRAAEAARARRAA .
0.115

Please report the recorded median log2 fold change for FBXL12_hotspot_186_40 (protein) MELRVRFSPDMSVAQRRAGADIAVAILEGLAERGEIEELVEAARSLLDSLEAARARIQDPEFAAVAAAALARIAAILEEAAKRYPENEEIKEALARVKAA .
0.165

Please report the recorded median log2 fold change for FBXL12_hotspot_54_68 (protein) KTVLLVVRATTVEALRRTLETAVAIAEGLLAAGHRVRVEIRVDSEDVLEATRLATRAAERLEALGAEDIRVEVRVETEEEKEEVERVAEETRREERERRA .
-0.347

Please report the recorded median log2 fold change for FBXL12_hotspot_54_70 (protein) KVVTIRVRAETIEAARRTVETAVEIARGLREAGIEVEVELELEAEDVEAAARLAAEARHAFERIGARRIEVRLRLARPEDAPVFERLFAEELERLRREEE .
-0.0489

Please report the recorded median log2 fold change for FBXL12_hotspot_24_51 (protein) QTITLVVRADLDLDPRDSPEEKRARLRAAVEGFLGSVETGIALADLMAARGRGAVDREAFEAAAAALLAAAEALGEADLAARVRAARARFLAAADRLEAA .
0.0803

Please report the recorded median log2 fold change for FBXL12_hotspot_59_85 (protein) MRVVIVRGPVEEAARRITELLEAIAELLREIPQDERAERLVEIALSLLEEAVRLVEEGLDEELARRVIEAAERAAEEATPEQAERLNEAIERLREAIERR .
-0.444

Please report the recorded median log2 fold change for FBXL12_hotspot_186_37 (protein) MLLRVSFSPDDSPAQIQAGVDIAVAIVEGLAERGRLEDFVEAARSLLESLRANAARIKRPEAQAVFDAAVARLAEIAEEVAERYPENEEIKELLEELREA .
0.172

Please report the recorded median log2 fold change for FBXL12_hotspot_109_5 (protein) MTVLLVARATTPEAARRTGETALAIARGLRAAGHEVIAVIVTLEEAREIAEATAAELRALGAEVRLRTAATPEEVERAYAELRAEALARLDAREAAAAAA .
-0.531

Please report the recorded median log2 fold change for FBXL12_hotspot_186_26 (protein) MDLQIRVTLSPDLETARSGLEYAVGLLESLVERGLLESARSLVRSLIEAARKLVKETKDPEVRAAVIEALRRVAEILAKRPELEESRRLVEEAIKELEEE .
0.196
